These measurements were taken from patent US7432286B1.

system: Hlr c-Jun HeLa cells; experiment: C-Jun reporter assay (MEKK1 induced, Dual-Luciferase); format: cell-based; conditions: Homo sapiens
assay readout: inhibition at 10 µM

- O=C(NCc1ccc(S(=O)(=O)NNC(=O)c2csc(-c3ccc(C4SCCS4)cc3)n2)s1)c1ccc(Cl)cc1 [Example 1]: > 20%
- O=C(CCCNc1ncc(C(F)(F)F)cc1Cl)NNS(=O)(=O)c1ccc(CNC(=O)c2ccc[nH]c2=O)s1 [Example 75]: > 20%
- O=C(CCCNc1ncc(C(F)(F)F)cc1Cl)NNS(=O)(=O)c1ccc(CNC(=O)c2ccc(Cl)cc2)cc1 [Example 80]: > 20%

Could you now look at the following compound, please?
Asked: Tell us which inhibition at 10 µM value is on record for O=C(NCc1ccc(S(=O)(=O)NNC(=O)c2csc(COc3ccccc3Cl)n2)s1)c1ccc(Cl)cc1 [Example 13]
Given back: > 20%

====

Listed next: entries and their corresponding IC50.
target: GST-JNK3 (Homo sapiens); test: JNK3 in vitro assay (SPA, GST-c-Jun phosphorylation); type: biochemical; details: recombinant pre-activated GST-JNK3, 2 μM ATP
Sequence (P53779 whole entry): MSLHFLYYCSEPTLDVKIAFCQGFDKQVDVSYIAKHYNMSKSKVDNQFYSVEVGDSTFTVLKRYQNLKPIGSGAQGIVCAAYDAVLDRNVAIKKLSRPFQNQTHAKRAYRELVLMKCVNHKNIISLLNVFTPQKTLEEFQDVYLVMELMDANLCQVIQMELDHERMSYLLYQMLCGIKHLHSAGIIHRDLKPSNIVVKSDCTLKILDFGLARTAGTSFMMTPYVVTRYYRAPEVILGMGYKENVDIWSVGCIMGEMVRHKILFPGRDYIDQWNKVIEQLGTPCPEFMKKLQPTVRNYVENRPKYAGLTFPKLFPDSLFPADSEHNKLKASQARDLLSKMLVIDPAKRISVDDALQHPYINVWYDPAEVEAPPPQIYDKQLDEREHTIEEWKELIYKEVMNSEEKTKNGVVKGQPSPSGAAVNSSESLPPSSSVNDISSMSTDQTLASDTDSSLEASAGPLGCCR
Expressed in nM, but write only the number.

* O=C(CCCNc1ncc(C(F)(F)F)cc1Cl)NNS(=O)(=O)c1ccc(CNC(=O)c2ccc[nH]c2=O)s1 | 410

Asked: Check GST-JNK3 (Homo sapiens) data and give IC50 for `O=C(NCc1ccc(S(=O)(=O)NNC(=O)c2csc(COc3ccccc3Cl)n2)s1)c1ccc(Cl)cc1` .
Given back: 310

Asked: State IC50 (GST-JNK3 (Homo sapiens)) of `O=C(NCc1ccc(S(=O)(=O)NNC(=O)c2csc(-c3ccc(C4SCCS4)cc3)n2)s1)c1ccc(Cl)cc1` .
Given back: 210

Asked: Look up and report measured IC50 (GST-JNK3 (Homo sapiens)) for the following molecule: `O=C(CCCNc1ncc(C(F)(F)F)cc1Cl)NNS(=O)(=O)c1ccc(CNC(=O)c2ccc(Cl)cc2)cc1`
Given back: 250

====

target: UniProt:P45984; assay: JNK2 in vitro assay (SPA, GST-c-Jun phosphorylation); details: recombinant pre-activated GST-JNK2, 2 μM ATP
Sequence (P45984 whole entry): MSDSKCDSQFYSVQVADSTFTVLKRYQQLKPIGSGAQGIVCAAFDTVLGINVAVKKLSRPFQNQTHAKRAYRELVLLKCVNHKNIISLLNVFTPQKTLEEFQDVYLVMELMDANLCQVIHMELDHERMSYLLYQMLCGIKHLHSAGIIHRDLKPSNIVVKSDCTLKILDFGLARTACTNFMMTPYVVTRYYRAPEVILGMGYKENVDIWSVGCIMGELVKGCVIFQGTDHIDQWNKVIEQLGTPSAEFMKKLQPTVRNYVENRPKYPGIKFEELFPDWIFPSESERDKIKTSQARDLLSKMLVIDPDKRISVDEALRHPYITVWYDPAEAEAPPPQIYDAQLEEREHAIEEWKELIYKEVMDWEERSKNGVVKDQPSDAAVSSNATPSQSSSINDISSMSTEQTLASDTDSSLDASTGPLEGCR
assay readout: pIC50
Worth noting: pIC50 values are minus log10 of concentrations stated in mol/L.

// below: answered compounds
• O=C(NCc1ccc(S(=O)(=O)NNC(=O)c2csc(-c3ccc(C4SCCS4)cc3)n2)s1)c1ccc(Cl)cc1 [Example 1] = 6.43
• O=C(NCc1ccc(S(=O)(=O)NNC(=O)c2csc(COc3ccccc3Cl)n2)s1)c1ccc(Cl)cc1 [Example 13] = 6.01
• O=C(CCCNc1ncc(C(F)(F)F)cc1Cl)NNS(=O)(=O)c1ccc(CNC(=O)c2ccc(Cl)cc2)cc1 [Example 80] = 5.99

Next compound, pIC50 to be filled in.
Asked: Specify reported pIC50 for the compound shown: O=C(CCCNc1ncc(C(F)(F)F)cc1Cl)NNS(=O)(=O)c1ccc(CNC(=O)c2ccc[nH]c2=O)s1 [Example 75]
Given back: 6.25
